- Tested on: Caco-2
- ASSAY_NAME: cell viability relative to DMSO; higher = less toxic
- CONDITION_CONTEXT: 72 h; 1 nM
MEASUREMENT_LABEL: cell viability (%)
All answers are understood in %, so give the number only.

Input N[C@@H](C(=O)O)c1nn[nH]n1 (racemic) [tetrazol-5-yl-glycine-(RS)] . Output cell viability: 97.2

Input CC1(C)O[C@@H]2C[C@H]3[C@@H]4CCC5=CC(=O)C=C[C@]5(C)[C@H]4[C@@H](O)C[C@]3(C)[C@]2(C(=O)CO)O1 [desonide] . Output cell viability: 103

Input CCOC(=O)CCC(=O)O[C@H]1[C@H](O[C@@H]2[C@@H](C)[C@H](O[C@H]3C[C@@](C)(OC)[C@@H](O)[C@H](C)O3)[C@@H](C)C(=O)O[C@H](CC)[C@@](C)(O)[C@H](O)[C@@H](C)C(=O)[C@H](C)C[C@@]2(C)O)O[C@H](C)C[C@@H]1N(C)C [erythromycin-ethylsuccinate] . Output cell viability: 87.7

Input CC(C)[C@@H]1C(=O)N(S(C)(=O)=O)[C@@H]2CCN(C(=O)/C=C/CN3CCCCC3)[C@H]21 . Output cell viability: 110

Input CCOC(=O)c1ncc2[nH]c3ccc(OCc4ccccc4)cc3c2c1COC . Output cell viability: 99.8

Input CC(C)CCC[C@@H](C)[C@H]1CC[C@H]2[C@@H]3CC=C4C[C@@H](O)CC[C@]4(C)[C@H]3CC[C@]12C . Output cell viability: 89.4

====

- Test system: Vero E6
- ASSAY_NAME: cell viability relative to DMSO; higher = less toxic
- CONDITION_CONTEXT: 72 h; 10000 nM
MEASUREMENT_LABEL: cell viability (%)
All answers are understood in %, so give the number only.

Input FCc1ccc(OCCOc2ccc(Cl)cc2Cl)c(Cl)n1 . Output cell viability: 103

Input O=C(O)C1=CCCN(CCOC(c2ccc(C(F)(F)F)cc2)c2ccc(C(F)(F)F)cc2)C1 . Output cell viability: 99.4

Input O=C(CN1CCNCC1)NC1CCCCC1 . Output cell viability: 98.5

Input CCc1nc(C)ccc1O . Output cell viability: 93.2

Input CCCCCCCCCCCCOCCOCCOCCOCCOCCOCCOCCOCCOCCO . Output cell viability: 116

Input CCCCCOC(=O)Nc1nc(=O)n([C@@H]2O[C@H](C)[C@@H](O)[C@H]2O)cc1F . Output cell viability: 95.6

Input CC[C@H](/C=C/[C@@H](C)[C@H]1CC[C@H]2[C@@H]3CC=C4C[C@@H](O)CC[C@]4(C)[C@H]3CC[C@]12C)C(C)C [Stigmasterol (Stigmasterin)] . Output cell viability: 102

Input CCCCC/N=c1\ccn(Cc2ccccc2)c2ccccc12 . Output cell viability: 94.2

Input N[C@@H](C(=O)O)c1nn[nH]n1 (racemic) [tetrazol-5-yl-glycine-(RS)] . Output cell viability: 107

Input O=C(N[C@H]1CN2CCC1CC2)c1ccc(Cl)cc1 . Output cell viability: 92.5

Input CN(C)CC[C@@](O)(c1ccccc1)c1ccccc1Cl . Output cell viability: 101

Input CC(C)(O)C(Cl)(Cl)Cl . Output cell viability: 102

Input CC(C)NCCN(C(C)C)S(=O)(=O)c1ccc(Cl)cc1Cl . Output cell viability: 91.2

Input O=C(O[C@H]1C[C@H]2CC[C@@H](C1)[N+]21CCCC1)C(O)(c1ccccc1)c1ccccc1 . Output cell viability: 102

Input Cc1cccc(CN2CCN(C(c3ccccc3)c3ccc(Cl)cc3)CC2)c1 (configuration not stated) . Output cell viability: 97.7

Input CCOC(=O)Nc1ccc2c(c1)N(C(=O)CCN1CCOCC1)c1ccccc1S2 . Output cell viability: 96.2

Input Cn1cc(-c2cnc3ccc4ccc(CS(=O)(=O)NCc5ccccn5)cc4c(=O)c3c2)cn1 . Output cell viability: 97.7

Input CCCCOC(=O)c1cc2c(cn1)[nH]c1ccccc12 . Output cell viability: 102

Input C[N+](C)(C)CCCCCNCC12CC3CC(CC(C3)C1)C2 . Output cell viability: 103

Input CCOC(=O)c1ncc2[nH]c3ccc(OCc4ccccc4)cc3c2c1COC . Output cell viability: 85

Input CN1CCN(c2cc(-c3ccccc3)nc(N)n2)CC1 . Output cell viability: 103

Input O=C(O)c1ccc(-c2c[nH]c3ncc(-c4ccccc4)cc23)cc1C1CCCC1 . Output cell viability: 101

Input COc1ccc2[nH]c(-c3ccccc3)c(CCNC(C)=O)c2c1 . Output cell viability: 93.7

Input Cc1ncc([N+](=O)[O-])n1CCO . Output cell viability: 100

Input O=[N+]([O-])c1ccc2nc(COCc3nc4ccc([N+](=O)[O-])cc4[nH]3)[nH]c2c1 . Output cell viability: 114

Input CCN1CCN(c2cc(-c3ccc(F)cc3)c3c(n2)CCCCCC3)CC1 . Output cell viability: 102

Input CC(C)(C)[C@]1(O)CC2OC(=O)CC23C(=O)OC2OC(=O)[C@H](O)C231 (some centres not stated) [bilobalide] . Output cell viability: 103

Input CC(=O)c1ccc2c(c1)N(CCCN1CCN(CCO)CC1)c1ccccc1S2 . Output cell viability: 82.6

Input NC(=O)N1c2ccccc2CC(O)c2ccccc21 (configuration not stated) [licarbazepine] . Output cell viability: 97.8

Input Cn1c(CNc2ccc(C(=N)N)cc2)nc2cc(C(=O)N(CCC(=O)O)c3ccccn3)ccc21 . Output cell viability: 99

Input CC(C)(C)c1cc(NC(=O)Nc2ccc(-c3cn4c(n3)sc3cc(OCCN5CCOCC5)ccc34)cc2)no1 . Output cell viability: 99.8

Input CCCCCCCC/C=C\CCCCCCCC(=O)NCCc1ccc(O)c(O)c1 . Output cell viability: 61.7

Input Cn1cnc(-c2cc3nccc(Oc4ccc(NC(=S)NC(=O)Cc5ccccc5)cc4F)c3s2)c1 . Output cell viability: 77.3

Input CC(C)C[C@H](NC(=O)[C@H](CCc1ccccc1)NC(=O)CN1CCOCC1)C(=O)N[C@@H](Cc1ccccc1)C(=O)N[C@@H](CC(C)C)C(=O)[C@@]1(C)CO1 . Output cell viability: 2.3

Input N=C(N)NC(=O)c1cnn(-c2cccc3ncccc23)c1C1CC1 [zoniporide] . Output cell viability: 104

Input Cc1cc(OCc2nc(-c3ccccc3Cl)cs2)ccc1OCC(=O)O . Output cell viability: 97.1

Input C[C@H](CCC(=O)NCCS(=O)(=O)O)[C@H]1CC[C@H]2[C@@H]3[C@H](O)C[C@@H]4C[C@H](O)CC[C@]4(C)[C@H]3C[C@H](O)[C@]12C [taurocholate] . Output cell viability: 95
